Could you please report measured CC50 at 1 day for the items listed next?
- run description: cytotoxicity, cell viability by CellTiter-Glo
- Format: cell-based, human
- test parameters: human, HEK-Blue hTLR cells, cultured 1 day

Take a look at these entries with their results.
molecule: CCOCc1nc2c(N)nc3ccccc3c2n1C[C@H](C)O
value measured: > 30 µM
//
molecule: CCOCc1nc2c(N)nc3ccccc3c2n1C[C@@H](C)O[P@](=O)(N[C@@H](C)C(=O)OC(C)C)Oc1ccccc1Cl (single isomer, unassigned) [Example 10B]
value measured: > 30 µM
//
molecule: CCOCc1nc2c(N)nc3ccccc3c2n1C[C@@H](C)O[P@@](=O)(N[C@H](C)C(=O)OC(C)C)Oc1ccccc1 (single isomer, unassigned) [Example 13A]
value measured: > 30 µM
//
molecule: CCOCc1nc2c(N)nc3ccccc3c2n1C[C@@H](C)O[P@@](=O)(N[C@@H](C)C(=O)OC(C)C)Oc1ccc(C)cc1 (single isomer, unassigned)
value measured: > 30 µM
//
molecule: CCOCc1nc2c(N)nc3ccccc3c2n1C[C@@H](C)O[P@@](=O)(N[C@@H](C)C(=O)OC(C)C)Oc1ccccc1C (single isomer, unassigned)
value measured: > 30 µM

Next, consider the following molecule.
Q: Answer with the recorded CC50 at 1 day of CCOCc1nc2c(N)nc3ccccc3c2n1CC(C)(C)O [Example R848, reference compound] only.
Ans: > 10 µM
